So I've got a bunch of compounds here, and I need their Hemolysis percent, 25 μM values.
Tested on: human red blood cells
Assay Explanation: Hemolytic activity
Type: cell-based
Study Conditions: red cells of human, 18 h, 25
Square brackets hold non-standard residues; d marks the D form. Peptide text beside a SMILES is read from it.
Your answer is read as %, so omit the unit and give the number.

Prompt: Provide value of Hemolysis percent, 25 μM for this record tested with human red blood cells: CC(C)C[C@H](NC(=O)[C@H](CCCNC(=N)N)NC(=O)CNC(=O)CNC(=O)[C@@H](N)CCCNC(=N)N)C(=O)N[C@H]1CSSC[C@@H](C(=O)N[C@H](C(=O)NCC(=O)N[C@@H](CCCNC(=N)N)C(N)=O)C(C)C)NC(=O)[C@H](C(C)C)NC(=O)[C@@H]2CSSC[C@H](NC(=O)[C@H](Cc3ccc(O)cc3)NC1=O)C(=O)N[C@@H](CCCNC(=N)N)C(=O)N[C@@H](CCCNC(=N)N)C(=O)N[C@@H](CCCNC(=N)N)C(=O)N[C@@H](Cc1ccccc1)C(=O)N2 [Protegrin-1, reference compound]
Completion: 47.83

Prompt: Hemolysis percent, 25 μM of CC[C@@H](C)[C@@H](NC(=O)[C@@H](Cc1c[nH]c2ccccc12)NC(=O)[C@@H](CC(C)C)NC(=O)[C@@H](CC(C)C)NC(=O)[C@@H](Cc1c[nH]c2ccccc12)NC(=O)[C@@H](N)CO)C(=O)NCC(=O)N[C@H](CC(C)C)C(=O)N[C@H](CCCNC(=N)N)C(=O)N[C@H](CCCCN)C(=O)N[C@H](CCCCN)C(=O)N[C@H](CCCNC(=N)N)C(N)=O [WCopW19] (H-S[dW][dL][dL][dW][dI]G[dL][dR][dK][dK][dR]-NH2) on human red blood cells?
Completion: 4.32

Prompt: API: value(readout=Hemolysis percent, 25 μM, system=human red blood cells) for record CC(C)[C@@H](NC(=O)[C@H](N)Cc1c[nH]c2ccccc12)C(=O)N[C@@H](C(=O)N[C@@H](C(=O)N[C@@H](C(=O)N[C@H](Cc1c[nH]c2ccccc12)C(=O)N[C@H](CCCNC(=N)N)C(=O)N[C@H](CCCNC(=N)N)C(=O)N[C@H](CCCNC(=N)N)C(N)=O)C(C)C)C(C)C)C(C)C [WCopW44] (H-[dW][dV][dV][dV][dV][dW][dR][dR][dR]-NH2)
Completion: 0.11

====

System: MDR A. baumannii
Assay Explanation: microbe, parasite or virus in culture
Study Conditions: CLSI broth microdilution; CAMHB with 50 mg/L Ca2+, 10 mg/L Mg2+; 5 × 10^5 CFU/ml; 18 h 37 °C; triplicate; strain ATCC BAA-1605
Square brackets hold non-standard residues; d marks the D form. Peptide text beside a SMILES is read from it. Trp(2,5,7-tBu3) = CC(C)(C)c1cc(C(C)(C)C)c2[nH]c(C(C)(C)C)c(C[C@H](N)C(=O)O)c2c1
Exercise: state measured Minimum inhibitory concentrations, MDR A. baumannii for each of the molecules provided.
Numeric only. Scale: µM

Prompt: For the molecule CC[C@@H](C)[C@@H](NC(=O)[C@@H](Cc1c[nH]c2ccccc12)NC(=O)[C@@H](CCC(=O)O)NC(=O)[C@@H](CC(C)C)NC(=O)[C@H](N)Cc1c[nH]c2ccccc12)C(=O)NCC(=O)N[C@H](CC(C)C)C(=O)N[C@H](CCCNC(=N)N)C(=O)N[C@H](CCCCN)C(=O)N[C@H](CCCCN)C(=O)N[C@H](CCCNC(=N)N)C(N)=O [WCopWE] (H-[dW][dL][dE][dW][dI]G[dL][dR][dK][dK][dR]-NH2) , what Minimum inhibitory concentrations, MDR A. baumannii is on record?
Completion: 10

Prompt: For the molecule shown here, CC[C@@H](C)[C@@H](NC(=O)[C@@H](Cc1c[nH]c2ccccc12)NC(=O)[C@@H](C)NC(=O)[C@@H](C)NC(=O)[C@H](N)Cc1c[nH]c2ccccc12)C(=O)NCC(=O)N[C@H](CC(C)C)C(=O)N[C@H](CCCNC(=N)N)C(=O)N[C@H](CCCCN)C(=O)N[C@H](CCCCN)C(=O)N[C@H](CCCNC(=N)N)C(N)=O [WCopW20] (H-[dW][dA][dA][dW][dI]G[dL][dR][dK][dK][dR]-NH2) , give the reported Minimum inhibitory concentrations, MDR A. baumannii.
Completion: 2.5

Prompt: Record request: Minimum inhibitory concentrations, MDR A. baumannii value, item CC[C@@H](C)[C@@H](NC(=O)[C@@H](Cc1c[nH]c2ccccc12)NC(=O)[C@@H](CCCNC(=N)N)NC(=O)[C@@H](CCCNC(=N)N)NC(=O)[C@H](N)CCCNC(=N)N)C(=O)N[C@H](Cc1c[nH]c2ccccc12)C(=O)N[C@@H](C(=O)N[C@@H](C(=O)N[C@H](Cc1c[nH]c2ccccc12)C(=O)N[C@H](CCCCN)C(N)=O)[C@H](C)CC)C(C)C [WCopW43] (H-[dR][dR][dR][dW][dI][dW][dV][dI][dW][dK]-NH2)
Completion: 0.63

Prompt: Give the measured Minimum inhibitory concentrations, MDR A. baumannii of CC[C@@H](C)[C@@H](NC(=O)[C@@H](Cc1c[nH]c2ccccc12)NC(=O)[C@H](NC(=O)[C@@H](CC(C)C)NC(=O)[C@H](N)Cc1c[nH]c2ccccc12)C(C)C)C(=O)N[C@H](Cc1c[nH]c2ccccc12)C(=O)N[C@H](CCCNC(=N)N)C(=O)N[C@H](CCCNC(=N)N)C(N)=O [WCopW32] (H-[dW][dL][dV][dW][dI][dW][dR][dR]-NH2) .
Completion: 2.5

Prompt: // returns reported Minimum inhibitory concentrations, MDR A. baumannii for input CC[C@@H](C)[C@@H](NC(=O)[C@@H](Cc1c[nH]c2ccccc12)NC(=O)[C@@H](Cc1ccccc1)NC(=O)[C@@H](CC(C)C)NC(=O)[C@H](N)Cc1c[nH]c2ccccc12)C(=O)NCC(=O)N[C@H](CC(C)C)C(=O)N[C@H](CCCNC(=N)N)C(=O)N[C@H](CCCCN)C(=O)N[C@H](CCCCN)C(=O)N[C@H](CCCNC(=N)N)C(N)=O [WCopWF] (H-[dW][dL][dF][dW][dI]G[dL][dR][dK][dK][dR]-NH2)
Completion: 1.25

Prompt: Would you kindly share the measured Minimum inhibitory concentrations, MDR A. baumannii for CC[C@H](C)[C@H](NC(=O)[C@H](Cc1c[nH]c2ccccc12)NC(=O)[C@H](CC(C)C)NC(=O)[C@H](CC(C)C)NC(=O)[C@@H](N)Cc1c(C(C)(C)C)[nH]c2c(C(C)(C)C)cc(C(C)(C)C)cc12)C(=O)N[C@@H](C)C(=O)N[C@@H](CC(C)C)C(=O)N[C@@H](CCCNC(=N)N)C(=O)N[C@@H](CCCCN)C(=O)N[C@@H](CCCCN)C(N)=O [WtCopW] (H-[Trp(2,5,7-tBu3)]LLWIALRKK-NH2) ?
Completion: 10

Prompt: Please look up its Minimum inhibitory concentrations, MDR A. baumannii: CC[C@@H](C)[C@@H](NC(=O)[C@@H](Cc1c[nH]c2ccccc12)NC(=O)[C@@H](CC(C)C)NC(=O)[C@@H](CC(C)C)NC(=O)[C@H](N)Cc1c[nH]c2ccccc12)C(=O)NCC(=O)N[C@H](CC(C)C)C(=O)N[C@H](CCCNC(=N)N)C(=O)N[C@H](CCCCN)C(=O)N[C@H](CCCCN)C(=O)N[C@H](CCCNC(=N)N)C(N)=O [WCopW5] (H-[dW][dL][dL][dW][dI]G[dL][dR][dK][dK][dR]-NH2)
Completion: 1.25
